Data provenance: patent US20230338349A1

- protocol: Single ascending dose study in healthy subjects, pharmacokinetics of compound of Formula I
- Type: in vivo, human
- setup.conditions: human, plasma, mean, single oral dose 2 mg, 1 h
- Description: A Phase 1, single-center, subject- and investigator-blind, single-ascending dose, placebo-controlled, crossover, randomized study is performed to evaluate safety, tolerability, and pharmacokinetics (PK) of the compound of Formula I in healthy subjects. The study is conducted in 2 alternating cohorts (cohorts 1 and 2) in up to 3 study periods across 6 dose levels. […]
quantity.measured: concentration at 1 h
Form field: result (number plus unit)

## Task Query (compound): CC(=O)Nc1nc(F)c(CN2CC[C@H](OCc3noc(C)n3)C[C@@H]2C)s1 ; field requested: concentration at 1 h
## Result 21.8 ng/mL
